# Procedure Details: NCI Yeast Anticancer Drug Screen. Data for the cln2 rad14 strain (AID 165);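 further: 0% = growth equal to vehicle treated cultures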
# Condition Info: S. cerevisiae cln2 rad14 strain, at 5.0 µM (retest, dose inferred, filed as 0.5), hits give high values
About 79,000 compounds went through this panel and 15% of them were active in at least one assay; those are over-represented in the sample as a whole.
Experimental Readout: growth inhibition (%)

INSERT INTO results (molecule, recorded_measurement) VALUES
  ('O=C(NO)c1cccnc1', 1),
  ('c1ccc(-c2[nH]c3ccccc3c2-c2ccccn2)cc1', 4),
  ('CC[N](CC)[Ge]([CH2]C)[CH2]C.C[CH2][Ge]([CH2]C)[CH2]C', 54),
  ('COc1cc2c(cc1O)C1CN(C2)Cc2cc(OC)c(O)cc21', 2),
  ('O=C1C(CN2CCOCC2)CCCC1CN1CCOCC1 (centres undefined)', 3),
  ('CCOc1ccc(N/N=C(\CCC(=O)O)C(=O)O)cc1', -64),
  ('CC(=O)OC1OC(=O)C(C)(C(C)=O)C1C (centres undefined)', 27),
  ('CC[C@@]1(OC(=O)C(N)CCCCN)C(=O)OCc2c1cc1n(c2=O)Cc2cc3ccccc3nc2-1 (some centres undefined)', 13),
  ('Cc1ccc(NCCN(C)C)c2c(=O)c3cc(O)ccc3sc12', 15),
  ('N#Cc1c(/N=C/c2ccccc2Cl)sc2c1CCC2', 26),
  ('CN=c1sc2nc(C#N)c(C#N)nc2n1C', 2),
  ('c1cc2c3c(cccc3c1)-c1cnccc1-2', 48),
  ('Nc1ncnc2c(C3OC(CO)C(O)C3O)scc12 (centres undefined)', 21),
  ('C/C(N=NC(=S)N1CCCCCC1)=C1\C=CC=CN1O', 19),
  ('Nc1ccccc1Oc1ccc(Cl)cc1Cl', 22),
  ('O=[N+]([O-])C(/C=C(\Cl)[N+](=O)[O-])=C(Nc1ccccc1)Nc1ccccc1', 1),
  ('COC(=O)C#CC(=O)OC', 21),
  ('O=S(=O)(O)c1ccc(NN(c2c(O)ccc3ccccc23)S(=O)(=O)O)cc1', -17),
  ('CCO/C(=C\C=O)C1CCC2C3CC=C4CC(OC(C)=O)CCC4(C)C3CCC12C (centres undefined)', 2),
  ('CCC(C)[P+](c1ccccc1)(c1ccccc1)c1ccccc1 (centres undefined)', -4),
  ('Cc1c(-c2ccccc2)ccnc1/C=N/NC(N)=S', 39),
  ('CC(C)CCCC(C)C1CCC2C3CC=C4CC([n+]5cccc6ccccc65)CCC4(C)C3CCC12C (centres undefined)', 39),
  ('COc1ccc(Oc2ccccc2N)cc1', -8),
  ('COc1ccc2cc(C(C)=O)c3ccccc3c2c1', -2),
  ('COc1cccc2c1C(=O)c1c(O)c3c(c(O)c1C2=O)C[C@@](O)(C(C)=O)C[C@@H]3OC1CC(N)C(O)C(C)O1 (some centres undefined)', 23),
  ('O=c1c(Cl)c(Cl)cnn1-c1ccccc1', 17),
  ('Cc1n(Cc2ccccc2)c2c([n+]1C)C(=O)c1ccccc1C2=O', 34),
  ('COC1OC2COC(c3ccccc3)OC2C(O)C1OS(=O)(=O)c1ccc(C)cc1 (centres undefined)', -10),
  ('CCN(CC)CCNc1n[n+]([O-])c2cc([N+](=O)[O-])ccc2[n+]1[O-]', 32),
  ('CCCCCCCCC(Sc1n[nH]c(=O)[nH]c1=O)C(=O)OCC (centres undefined)', 1),
  ('CNC(=O)N(C)CN(C)C(=O)NC', -4),
  ('CCN(CC)CCNc1nc(NCCN(CC)CC)c2nc(-c3ccccc3)c(-c3ccccc3)nc2n1', 76),
  ('Nc1ccc2c(ccc3ccc4ccccc4c32)c1', -7),
  ('C[N+]1(C)CCC(c2ccccc2)(c2ccccc2)C(=O)C1', -9),
  ('Cc1cc(O)c(C(C)C)cc1Cl', -4),
  ('CCN(CC)c1ccc(C(=C2C=CC(=[N+](CC)CC)C=C2)c2ccc(N(CC)CC)cc2)cc1', 97),
  ('Nc1cc2c(cc1[N+](=O)[O-])[nH]c1c(-c3ccccc3)nccc12', 1),
  ('c1ccc2c(c1)[nH]c1c(N3CCOCC3)nnc(N3CCOCC3)c12', -2),
  ('O/N=C(\CC(O)(C(F)(F)F)C(F)(F)F)c1cccc(Cl)c1', 8),
  ('COc1cc(OC)c(OC)cc1/C=C\c1ccnc2ccccc12', 18),
  ('CC1(C)N(OC2CCCCO2)C(c2ccccc2)C(c2ccccc2)=[N+]1[O-] (centres undefined)', 17),
  ('CCCCCC(C)c1ccc(O)c(C)c1 (centres undefined)', 41),
  ('Oc1ccc(/C=N/NC(=S)NN2CCOCC2)nc1', 20),
  ('CCC(C)(C)c1cc(O)c(C(C)(C)CC)cc1O', 18);

* * *

# Procedure Details: NCI Yeast Anticancer Drug Screen. Data for the cln2 rad14 strain (AID 165);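 further: 0% = growth equal to vehicle treated cultures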
# Condition Info: S. cerevisiae cln2 rad14 strain, at 50.0 µM
The panel holds about 79,000 compounds, 15% with a hit somewhere; the sample as a whole holds those more often. Active and inactive are the calls of the source. Cut-off read from the data, not from the text of the source: active = growth inhibition above about 70%; inactive = the rest.
Outcome codes: 1 (yes) for active, 0 (no) for inactive

INSERT INTO assay_data (smi, category) VALUES
  ('COc1cc2c3c(c1)SCCC(=O)N3CCN2', '1 (yes)'),
  ('c1ccc(N=c2cnc3c(ccc4ccccc43)o2)cc1', '1 (yes)'),
  ('Cc1nc(N=C(N)N)nc2ccc3ccccc3c12', '0 (no)'),
  ('CCO/C=C1\SC(=S)N(c2cccc(O)c2)C1=O', '0 (no)'),
  ('COc1cc(OC)c(OC)cc1/C=C\c1ccnc2ccccc12', '0 (no)'),
  ('ClCCCN(CCCCl)c1ccc(C=Nc2cccc(Cl)c2)cc1', '1 (yes)'),
  ('Clc1nc2nc(Cl)c(Cl)n2nc1Cl', '1 (yes)'),
  ('Clc1ccc(CNCCCNCc2ccc(Cl)cc2)cc1', '1 (yes)'),
  ('O=C(CNCc1ccccc1)Oc1c(Cl)c(Cl)c(Cl)c(Cl)c1Cl', '0 (no)');

* * *

# Procedure Details: NCI Yeast Anticancer Drug Screen. Data for the mec2-1 strain (AID 157)
# Condition Info: S. cerevisiae mec2-1 strain, at 50.0 µM (retest, dose inferred, filed as 5.0), hits give high values
Compounds without any hit were thinned out: in the full panel of roughly 79,000, 15% have a hit.
Experimental Readout: growth inhibition (%)

INSERT INTO measurements (molecule, recorded_measurement) VALUES
  ('C=C1C(=O)OC2C[C@@]3(C)CCC[C@H](C)C3=CC12 (stereo partly drawn) (tested in a mixture with another compound)', 99),
  ('CCOC(=O)C(CN)(c1ccccc1)c1ccccc1', 8),
  ('CN(C)c1nc(N)c(C#N)c(C#N)c1C#N', 44);

* * *

# Procedure Details: NCI Yeast Anticancer Drug Screen. Data for the sgs1 mgt1 strain (AID 161);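 further: 0% = growth of cultures given vehicle only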
# Condition Info: S. cerevisiae sgs1 mgt1 strain, at 50.0 µM
# Experimental: Growth inhibition of yeast strains with defined genetic alterations is measured as a screen for potential anti-cancer activity. Selected strains with alterations in DNA damage repair or cell cycle control were exposed to compounds and growth inhibition was measured relative to vehicle treated controls. The strain used in this assay is sgs1 mgt1
About 79,000 compounds went through this panel and 15% of them were active in at least one assay; those are over-represented in the sample as a whole. The source made the active and inactive calls. Cut-off read from the data, not from the text of the source: active = growth inhibition above about 70%; inactive = the rest.
Outcomes: active, inactive

INSERT INTO results (compound, category) VALUES
  ('COc1cc(OC)c(OC)cc1/C=C\c1ccnc2ccccc12', 'active'),
  ('N#CC1Sc2ccccc2N1C(=O)OCc1ccccc1 (stereo not drawn)', 'active'),
  ('COc1nc2nc(C(O)C(O)CO)cnc2c(=O)n1C (stereo not drawn)', 'inactive'),
  ('CCCCN(CCCC)C(Cl)=Nc1ccccc1', 'active'),
  ('COC(=O)[C@@H](NS(=O)(=O)CC12CCC(CC1)C2(C)C)C(C)(C)C', 'inactive'),
  ('O=C(/C=C/c1ccc(Cl)cc1)NC1C=Nc2ccc([N+](=O)[O-])cc2NC1=O (stereo not drawn)', 'active'),
  ('C=CCOC(=O)c1ccc(C(=O)OCC=C)cc1', 'active'),
  ('Oc1ccc(/C=N/NC(=S)NN2CCOCC2)nc1', 'active'),
  ('Clc1c(C(Cl)(Cl)Cl)nsc1N1CCCCC1', 'inactive'),
  ('COC(=O)C(=O)C(C(=O)C(c1ccccc1)c1ccccc1)c1nc2n(c1O)/C(=N/C(=O)Nc1ccc(Cl)cc1)N=N2 (stereo not drawn)', 'active'),
  ('CC(C)CC(Nc1c(O)ccc2ccccc12)C(=O)O (stereo not drawn)', 'active'),
  ('O=C(O)CSCc1ccc(Cl)cc1', 'inactive'),
  ('C/C(=N\NC(=S)N1CCN(c2ccccn2)CC1)c1nccs1', 'active'),
  ('CC1C[C@]2(C)C(=O)Nc3ccccc3[C@@H]2Nc2ccccc21 (stereo partly drawn)', 'active'),
  ('O=C(CCl)Nc1ccc(C(=O)N/N=C/c2ccc(Cl)cc2)cc1', 'inactive'),
  ('COc1cccc2c1C(=O)c1c(O)c3c(c(O)c1C2=O)C[C@@](O)(C(C)=O)C[C@@H]3OC1CC(O)C(O)C(C)O1 (stereo partly drawn)', 'active'),
  ('CCN1CCC(O)(c2ccc(Oc3ccccc3)cc2)C(C(=O)c2ccc(Oc3ccccc3)cc2)C1 (stereo not drawn)', 'inactive'),
  ('COc1cc2c(cc1OC)C(Cc1c3ccccc3cc3ccccc13)N(C)CC2 (stereo not drawn)', 'active'),
  ('O=C(CON1C(=O)c2ccccc2C1=O)c1ccccc1', 'inactive'),
  ('Nc1ccc2c(ccc3ccc4ccccc4c32)c1', 'active'),
  ('COc1ccc(Cc2ccc(O)cc2)cc1', 'inactive'),
  ('COc1cc2c(cc1O)C1CN(C2)Cc2cc(OC)c(O)cc21', 'inactive'),
  ('Clc1ccc(CN2CCCN(Cc3ccc(Cl)cc3)C2c2cc3ccccc3c3ccccc23)cc1', 'active'),
  ('COc1ccc(Oc2ccccc2N)cc1', 'inactive'),
  ('OCC(O)C(O)C(O)C(O)CO (stereo not drawn) (tested in a mixture with another compound)', 'inactive'),
  ('O=S(O)CCCCSSCC(O)C(O)CSSCCCCS(=O)O (stereo not drawn)', 'active'),
  ('OC1(C2C=CC=C2)c2ccccc2C=Cc2ccccc21', 'active'),
  ('CCSSC(=Nc1ccccc1)OCC(C)C', 'active'),
  ('Oc1cc2c(cc1C(c1ccc3c(c1)OCO3)N1CCN(C(c3ccc4c(c3)OCO4)c3cc4c(cc3O)OCO4)CC1)OCO2 (stereo not drawn)', 'active'),
  ('CN=c1sc2nc(C#N)c(C#N)nc2n1C', 'active'),
  ('OC1CN(Cc2ccccc2)C[C@@H]1O (stereo partly drawn)', 'inactive'),
  ('C=CCc1c2c(ccc(=O)c1O)-c1c(cc(OC)c(OC)c1OC)CCC2NC(C)=O (stereo not drawn)', 'inactive'),
  ('CC(=O)Oc1cccc2cccnc12', 'active'),
  ('CCOc1ccc2ccccc2c1C(Cc1ccc(Cl)cc1)NCCO (stereo not drawn)', 'active'),
  ('O/N=C(\CC(O)(C(F)(F)F)C(F)(F)F)c1cccc(Cl)c1', 'active'),
  ('CC(C)CCC[C@@H](C)[C@H]1CC[C@H]2[C@@H]3CC=C4N5CCCN=C5CC[C@]4(C)[C@H]3CC[C@]12C', 'active'),
  ('O=[N+]([O-])c1ccc(OCCN(Cc2ccccc2)Cc2ccccc2)c([N+](=O)[O-])c1', 'inactive'),
  ('C=C1C(=O)OC2C[C@@]3(C)CCC[C@H](C)C3=CC12 (stereo partly drawn) (tested in a mixture with another compound)', 'active');
